target.desc: UniProtKB P13569
assay.comment: Short-circuit current in T84 colonic epithelial cells
assay.context: apparent KI, after basolateral permeabilization with amphotericin B, Cl^− gradient
reported.metric: pKi
One number for each entry, as −log10 of the molar value.

Query: # pKi lookup, item `O=C(O)c1ccc(/C=C2\SC(=S)N(c3cccc(C(F)(F)F)c3)C2=O)cc1`
Reply: 6.52

* * *

target.desc: wildtype CFTR (Homo sapiens)
Sequence (P13569 whole entry): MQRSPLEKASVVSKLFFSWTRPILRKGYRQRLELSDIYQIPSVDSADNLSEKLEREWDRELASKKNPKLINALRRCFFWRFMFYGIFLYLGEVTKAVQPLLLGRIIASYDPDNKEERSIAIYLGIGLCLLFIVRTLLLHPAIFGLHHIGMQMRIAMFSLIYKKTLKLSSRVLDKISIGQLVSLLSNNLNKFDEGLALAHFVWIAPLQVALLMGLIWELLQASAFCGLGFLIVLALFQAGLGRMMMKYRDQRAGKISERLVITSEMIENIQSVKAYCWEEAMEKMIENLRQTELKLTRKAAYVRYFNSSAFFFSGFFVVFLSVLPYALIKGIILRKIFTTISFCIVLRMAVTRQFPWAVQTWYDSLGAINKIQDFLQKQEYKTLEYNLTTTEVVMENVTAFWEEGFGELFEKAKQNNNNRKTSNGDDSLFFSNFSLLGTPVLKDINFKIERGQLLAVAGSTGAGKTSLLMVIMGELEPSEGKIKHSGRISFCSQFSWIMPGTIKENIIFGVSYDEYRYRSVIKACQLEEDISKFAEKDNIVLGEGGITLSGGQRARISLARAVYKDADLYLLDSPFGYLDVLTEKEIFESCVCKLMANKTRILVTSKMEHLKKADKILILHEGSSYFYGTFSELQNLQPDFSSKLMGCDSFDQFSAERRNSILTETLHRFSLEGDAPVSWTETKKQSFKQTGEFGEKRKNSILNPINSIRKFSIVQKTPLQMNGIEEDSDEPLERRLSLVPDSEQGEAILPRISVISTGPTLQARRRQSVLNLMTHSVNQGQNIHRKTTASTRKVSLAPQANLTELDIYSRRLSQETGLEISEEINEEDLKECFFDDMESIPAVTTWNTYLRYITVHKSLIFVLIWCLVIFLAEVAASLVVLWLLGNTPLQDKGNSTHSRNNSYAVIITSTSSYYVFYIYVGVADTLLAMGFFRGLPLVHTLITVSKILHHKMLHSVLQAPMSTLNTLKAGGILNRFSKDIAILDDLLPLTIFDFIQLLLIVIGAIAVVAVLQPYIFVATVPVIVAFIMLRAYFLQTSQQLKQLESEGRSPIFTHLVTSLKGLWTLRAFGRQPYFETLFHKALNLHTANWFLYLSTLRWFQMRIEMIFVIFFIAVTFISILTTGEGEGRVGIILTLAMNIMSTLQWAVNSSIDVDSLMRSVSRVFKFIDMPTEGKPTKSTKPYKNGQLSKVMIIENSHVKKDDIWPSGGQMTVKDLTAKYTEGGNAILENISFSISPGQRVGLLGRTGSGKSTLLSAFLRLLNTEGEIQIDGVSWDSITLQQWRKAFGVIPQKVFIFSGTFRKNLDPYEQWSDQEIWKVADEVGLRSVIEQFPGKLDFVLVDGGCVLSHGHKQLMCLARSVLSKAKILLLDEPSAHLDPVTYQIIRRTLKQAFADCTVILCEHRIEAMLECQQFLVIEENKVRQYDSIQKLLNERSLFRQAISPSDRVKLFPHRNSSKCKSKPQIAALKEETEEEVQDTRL
assay.comment: YFP fluorescence assay of CFTR-mediated I^− transport in FRT cells
Format: cell-based
Set-up: expressed in transfected cells; host or cells: Fischer rat thyroid (FRT) cells
assay.context: relative to CFTRinh-172 = 1.0
From the text: FIG. 1A is a schematic representation of a screening technique used for detection of CFTR inhibitors. CFTR was maximally stimulated by multiple agonists in stably transfected epithelial cells co-expressing human CFTR and a yellow fluorescent protein (YFP) having Cl^−/I^− sensitive fluorescence. After addition of a test compound, I^− influx was induced by adding an I^− containing solution. […]
reported.metric: relative potency (CFTR inhibition)
Numbers only.

# example entries with known answers
| compound | relative potency (CFTR inhibition) |
| --- | --- |
| O=C1/C(=C/c2cc(Br)c(O)c([N+](=O)[O-])c2)SC(=S)N1c1cccc(C(F)(F)F)c1 [CFTRinh-236] | 0.1 |
| O=C1/C(=C/c2cc(Br)c(O)c(Br)c2)SC(=S)N1c1cccc(C(F)(F)F)c1 [CFTRinh-214] | 0.1 |
| O=C(O)c1ccccc1C=C1SC(=S)N(c2ccccc2C(F)(F)F)C1=O [4, 2] | 0.67 |
| O=C(O)c1ccccc1C=C1SC(=S)N(c2ccccc2C(F)(F)F)C1=O [3, 2] | 0.74 |
| O=C(O)c1ccccc1C=C1SC(=S)N(c2ccccc2C(F)(F)F)C1=O [a=2, b=2] | 0.69 |
| O=C(O)Oc1ccc(/C=C2\SC(=S)N(c3cccc(C(F)(F)F)c3)C2=O)cc1 [CFTRinh-029] | 0.3 |
| O=C1/C(=C/c2ccc(O)c(O)c2)SC(=S)N1c1cccc(C(F)(F)F)c1 [CFTRinh-185] | 0.2 |

Query: Could you share which relative potency (CFTR inhibition) value was measured for O=C(O)c1ccc(/C=C2\SC(=S)N(c3cccc(C(F)(F)F)c3)C2=O)cc1 [CFTRinh-172] ?
Reply: 1.0

* * *

assay.comment: Caco-2 permeability assay
Type: in vitro ADME
assay.context: human, pH 7.3, Caco-2 monolayers, read-out: permeability coefficient (Papp)
reported.metric: Papp A→B at 25 μM (×10⁻⁶ cm/s)
Give bare numbers, in ×10⁻⁶ cm/s.

Query: Fill blank: measured Papp A→B at 25 μM of the compound O=C(O)c1ccc(/C=C2\SC(=S)N(c3cccc(C(F)(F)F)c3)C2=O)cc1 [CFTRinh-172] is ____.
Reply: 16

* * *

target.desc: CFTR (Homo sapiens)
Sequence (P13569 whole entry): as above
assay.comment: Short-circuit current in T84 colonic epithelial cells
reported.metric: IC50

Query: Identify the measured IC50 of O=C(O)c1ccc(/C=C2\SC(=S)N(c3cccc(C(F)(F)F)c3)C2=O)cc1 [CFTRinh-172] for CFTR (Homo sapiens).
Reply: ~3 µM

* * *

target.desc: CFTR (Homo sapiens)
assay.comment: Short-circuit current in T84 colonic epithelial cells
assay.context: KI, cells depolarized by high-K^+ basolateral solution
pKi: −log10 of the molar value.
reported.metric: pKi

Query: # input compound: `O=C(O)c1ccc(/C=C2\SC(=S)N(c3cccc(C(F)(F)F)c3)C2=O)cc1` ; wanted: its pKi
Reply: ~6.52

Ref: patent US8058295B2
